All values here come from ChEMBL document CHEMBL4049435.

- target or test system: Kynurenine 3-monooxygenase (Homo sapiens, UniProt O15229)
- Sequence (O15229 whole entry): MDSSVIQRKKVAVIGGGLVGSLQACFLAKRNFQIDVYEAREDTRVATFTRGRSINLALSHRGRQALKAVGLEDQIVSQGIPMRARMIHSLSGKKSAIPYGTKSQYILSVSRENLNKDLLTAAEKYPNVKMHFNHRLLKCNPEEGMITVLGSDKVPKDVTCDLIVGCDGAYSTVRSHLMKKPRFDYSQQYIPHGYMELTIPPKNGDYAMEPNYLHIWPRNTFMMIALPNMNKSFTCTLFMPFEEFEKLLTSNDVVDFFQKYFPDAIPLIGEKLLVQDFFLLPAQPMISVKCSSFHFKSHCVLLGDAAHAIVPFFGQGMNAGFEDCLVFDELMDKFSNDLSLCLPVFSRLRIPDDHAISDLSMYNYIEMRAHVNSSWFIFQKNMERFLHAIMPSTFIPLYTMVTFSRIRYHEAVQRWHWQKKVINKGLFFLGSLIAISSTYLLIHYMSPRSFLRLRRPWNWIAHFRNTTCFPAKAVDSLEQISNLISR
- protocol notes: Inhibition of full length human GST-tagged KMO expressed in baculovirus infected Sf9 insect cell membranes using kynurenine as substrate measured after 1 hr by RapidFire high-throughput mass spectrometric analysis
outcome measure: Ki
Field note: include the unit after the figure.

Q. For O=C(O)CCn1c(=O)oc2cc(OCc3ccccn3)c(Cl)cc21 , write its Ki.
A. 1 nM

====

- protocol notes: Protein binding in human plasma
- Type: ADME, cell-free
- measurement setup: read-out: PPB (converted)
Documented fraction unbound across a set of compounds
Give your answer as a number; write no unit.

Completed entries (count: 4):
compound	fraction unbound
NC(CO)(CO)CO.O=C(O)CCn1c(=O)oc2cc(OCC3CC3)c(Cl)cc21	0.04
CC(Oc1cc2oc(=O)n(CCC(=O)O)c2cc1Cl)c1ccccn1.NC(CO)(CO)CO (stereo not given)	0.183
CCOc1cc2oc(=O)n(CCC(=O)O)c2cc1Cl.NC(CO)(CO)CO	0.042
NC(CO)(CO)CO.O=C(O)CCn1c(=O)oc2cc(OC3CC3)c(Cl)cc21	0.031

Q. Look up and report measured fraction unbound for this entry: Cc1ccc([C@@H](C)Oc2cc3oc(=O)n(CCC(=O)O)c3cc2Cl)nc1.NC(CO)(CO)CO
A. 0.022
